# target entity: CDK6/CyclinD3 (Homo sapiens, UniProt Q00534)
# Sequence (Q00534 whole entry): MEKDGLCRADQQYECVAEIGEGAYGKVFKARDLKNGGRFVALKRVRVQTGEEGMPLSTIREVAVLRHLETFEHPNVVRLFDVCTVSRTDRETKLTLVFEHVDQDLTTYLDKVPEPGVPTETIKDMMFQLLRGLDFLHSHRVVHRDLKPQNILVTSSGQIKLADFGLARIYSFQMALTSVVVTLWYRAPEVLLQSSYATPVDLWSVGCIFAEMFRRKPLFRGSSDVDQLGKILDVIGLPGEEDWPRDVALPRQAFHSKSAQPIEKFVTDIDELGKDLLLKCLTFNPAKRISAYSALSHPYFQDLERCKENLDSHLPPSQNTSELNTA
# Sequence (P30281 whole entry partner): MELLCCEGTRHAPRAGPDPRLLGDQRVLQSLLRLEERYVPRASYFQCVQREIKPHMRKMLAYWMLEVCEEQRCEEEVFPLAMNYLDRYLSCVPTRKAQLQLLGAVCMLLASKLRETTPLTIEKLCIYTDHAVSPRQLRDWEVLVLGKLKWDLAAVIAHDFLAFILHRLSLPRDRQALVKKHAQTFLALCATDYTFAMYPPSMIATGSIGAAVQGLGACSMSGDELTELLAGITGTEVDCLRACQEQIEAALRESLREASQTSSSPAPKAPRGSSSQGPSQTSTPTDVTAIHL
# protocol: CDK6/CyclinD3 kinase inhibitory activity (Caliper mobility shift)
# experimental setup: enzyme 15 nM, ATP 800 μM, 28° C. 30 min; read-out: CDK6/Cyclin D3 IC50
parameter: IC50

Record IC50 per entry; entries follow.
1. CNC(C)c1cnc2c(F)cc(-c3nc(N[C@@H]4CCOC[C@H]4O)ncc3Cl)cc2c1C (single isomer, unassigned) [Example 48b]
2. CC(C)(O)c1cnc2c(F)cc(-c3nc(N[C@@H]4CCOC[C@H]4O)ncc3C#N)cc2c1Cl
3. CC1(C)Cc2cnc3c(F)cc(-c4nc(N[C@@H]5CCOC[C@H]5O)ncc4F)cc3c2CN1
4. Cc1nc2c(F)cc(-c3nc(N[C@@H]4CCOC[C@H]4O)ncc3F)cc2c2c1CC(C)(C)NC2

output:
1. 100 to 1000 nM
2. 10 to 100 nM
3. 10 to 100 nM
4. 100 to 1000 nM

Provide IC50 values for the following items, in order.
1. CC1(C)Cc2cnc3c(F)cc(-c4nc(N[C@@H]5CCOC[C@H]5O)ncc4Cl)cc3c2CN1
2. CNC(C)c1cnc2c(F)cc(-c3nc(N[C@@H]4CCOC[C@H]4O)ncc3F)cc2c1Cl (single isomer, unassigned) [Example 64a]
3. Cc1[nH]cnc1-c1cnc2c(F)cc(-c3nc(N[C@@H]4CCOC[C@H]4O)ncc3Cl)cc2c1
4. CCC(O)c1cc2cc(-c3nc(N[C@@H]4CCOC[C@H]4O)ncc3Cl)cc(F)c2nc1C (single isomer, unassigned) [Example 39a]
5. Cc1nc2c(F)cc(-c3ccnc(N[C@@H]4CCOC[C@H]4O)n3)cc2c2c1CC(C)(C)NC2
6. Cc1c(C(C)(C)O)nnc2c(F)cc(-c3nc(N[C@@H]4CCOC[C@H]4O)ncc3Cl)cc12
7. [2H]c1nc2c(F)cc(-c3ccnc(N[C@@H]4CCOC[C@H]4O)n3)cc2c2c1CC1(CC1)NC2

output:
1. 10 to 100 nM
2. 100 to 1000 nM
3. 100 to 1000 nM
4. 100 to 1000 nM
5. ≥ 1000 nM
6. 100 to 1000 nM
7. 100 to 1000 nM

* * *

# target entity: CDK4/CyclinD1 (Homo sapiens)
# protocol: CDK4/CyclinD1 kinase inhibitory activity (Caliper mobility shift)
# experimental setup: enzyme 20 nM, ATP 672 uM, 28° C. 30 min; read-out: CDK4/Cyclin D1 IC50
pIC50: −log10 of the molar value.
parameter: pIC50

See these solved cases before continuing.
> print(dat)
                                   compound  meas.value
1  O[C@@H]1COCC[C@H]1Nc1ncc(Cl)c(-c2cc(F)c3ncc4c(c3c2)CNCC4)n1 [Example 9]      > 8.00
2  CC1(C)NCCc2cnc3c(F)cc(-c4nc(N[C@@H]5CCOC[C@H]5O)ncc4Cl)cc3c21 [Example 109]      > 8.00

State the recorded pIC50 for every item in the following list.
1. Cc1c(C(C)O)cnc2c(F)cc(-c3nc(N[C@@H]4CCOC[C@H]4O)ncc3Cl)cc12 (single isomer, unassigned) [Example 88b]
2. [2H]c1nc(N[C@@H]2CCOC[C@H]2O)nc(-c2cc(F)c3nc(C)c(C(C)(C)O)cc3c2)c1F [Example 83]
3. Cc1c(C(C)NC2CC2)cnc2c(F)cc(-c3nc(N[C@@H]4CCOC[C@H]4O)ncc3F)cc12 (single isomer, unassigned) [Example 93a]
4. [2H]c1nc2c(F)cc(-c3nc(N[C@@H]4CCOC[C@H]4O)ncc3F)cc2c2c1CC1(CC1)NC2 [Example 70]
5. Cc1nc2c(F)cc(-c3nc(N[C@@H]4CCOC[C@H]4O)ncc3Cl)cc2c2c1CCN(C)C2 [Example 37]
6. CC1(O)CCc2nc3c(F)cc(-c4nc(N[C@@H]5CCOC[C@H]5O)ncc4Cl)cc3cc21 (single isomer, unassigned) [Example 38b]
7. CCc1c(C(C)(C)O)nnc2c(F)cc(-c3nc(N[C@@H]4CCOC[C@H]4O)ncc3Cl)cc12 [Example 61]

output:
1. > 8.00
2. > 8.00
3. 7.00 to 8.00
4. > 8.00
5. > 8.00
6. > 8.00
7. 7.00 to 8.00

Provide pIC50 values for the following items, in order.
1. CC(C)(O)c1cnc2c(F)cc(-c3nc(N[C@@H]4CCOC[C@H]4O)ncc3Cl)cc2c1F [Example 53]
2. Cc1nc2c(F)cc(-c3nc(N[C@@H]4CCOC[C@H]4O)ncc3F)cc2c(C)c1C(C)O (single isomer, unassigned) [Example 81b]

output:
1. > 8.00
2. > 8.00

Each compound below has a recorded value; state its pIC50.
1. CC(C)(N)c1cnc2c(F)cc(-c3nc(N[C@@H]4CCOC[C@H]4O)ncc3Cl)cc2c1 [Example 14]
2. Cc1c(C(C)(C)O)cnc2c(F)cc(-c3nc(N[C@@H]4CCOC[C@H]4O)ncc3Cl)cc12 [Example 7]
3. [2H]c1nc2c(F)cc(-c3nc(N[C@@H]4CCOC[C@H]4O)ncc3Cl)cc2c2c1CC1(CC1)NC2 [Example 72]
4. CNC(C)c1cnc2c(F)cc(-c3nc(N[C@@H]4CCOC[C@H]4O)ncc3F)cc2c1C (single isomer, unassigned) [Example 59b]
5. CC1NCCc2cnc3c(F)cc(-c4nc(N[C@@H]5CCOC[C@H]5O)ncc4Cl)cc3c21 (single isomer, unassigned) [Example 31b]
6. [2H]c1nc(N[C@@H]2CCOC[C@H]2O)nc(-c2cc(F)c3nc(C)c(C(C)O)c(C)c3c2)c1Cl (single isomer, unassigned) [Example 85b]
7. O[C@@H]1COCC[C@H]1Nc1cc(-c2cc(F)c3ncc4c(c3c2)CNCC4)c(Cl)cn1 [Example 25]
8. CC(C)(N)c1cnc2ccc(-c3nc(N[C@@H]4CCOC[C@H]4O)ncc3Cl)cc2c1 [Example 26]

output:
["> 8.00", "> 8.00", "> 8.00", "7.00 to 8.00", "> 8.00", "> 8.00", "> 8.00", "7.00 to 8.00"]

Fill in pIC50 for each of the 3 compounds listed.
1. Cc1nc2c(F)cc(-c3nc(N[C@@H]4CCOC[C@H]4O)ncc3Cl)cc2c2c1CC1(CC1)NC2 [Example 69]
2. CC1Cc2cnc3c(F)cc(-c4nc(N[C@@H]5CCOC[C@H]5O)ncc4Cl)cc3c2CN1 (single isomer, unassigned) [Example 34a]
3. CC(C)(O)c1cnc2c(F)cc(-c3nc(N[C@@H]4CCOC[C@H]4O)ncc3C#N)cc2c1Cl [Example 41]

output:
1: > 8.00; 2: > 8.00; 3: > 8.00

* * *

Record form. Attribute: pIC50. Fill in for each entry.
# target entity: CDK7/CyclinH/MAT1 (Homo sapiens, UniProt P50613)
# Sequence (P50613 whole entry): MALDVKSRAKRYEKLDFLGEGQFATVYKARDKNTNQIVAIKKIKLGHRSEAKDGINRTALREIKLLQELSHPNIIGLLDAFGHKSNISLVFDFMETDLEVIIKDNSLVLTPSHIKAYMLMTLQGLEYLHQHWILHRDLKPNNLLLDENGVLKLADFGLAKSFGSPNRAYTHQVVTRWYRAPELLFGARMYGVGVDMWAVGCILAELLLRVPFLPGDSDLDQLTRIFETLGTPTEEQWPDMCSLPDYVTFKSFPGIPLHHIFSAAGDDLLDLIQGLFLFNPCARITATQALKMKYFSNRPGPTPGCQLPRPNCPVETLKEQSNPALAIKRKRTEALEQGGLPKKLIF
# Sequence (P51946 whole entry partner): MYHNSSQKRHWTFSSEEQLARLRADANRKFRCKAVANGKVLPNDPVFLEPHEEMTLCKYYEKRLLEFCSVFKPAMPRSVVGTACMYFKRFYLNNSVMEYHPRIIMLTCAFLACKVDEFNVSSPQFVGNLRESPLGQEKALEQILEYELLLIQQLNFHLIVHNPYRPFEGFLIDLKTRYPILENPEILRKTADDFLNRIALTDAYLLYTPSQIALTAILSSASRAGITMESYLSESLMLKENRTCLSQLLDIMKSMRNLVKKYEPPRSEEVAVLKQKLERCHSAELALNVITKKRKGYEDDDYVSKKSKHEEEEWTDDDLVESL
# Sequence (P51948 whole entry partner): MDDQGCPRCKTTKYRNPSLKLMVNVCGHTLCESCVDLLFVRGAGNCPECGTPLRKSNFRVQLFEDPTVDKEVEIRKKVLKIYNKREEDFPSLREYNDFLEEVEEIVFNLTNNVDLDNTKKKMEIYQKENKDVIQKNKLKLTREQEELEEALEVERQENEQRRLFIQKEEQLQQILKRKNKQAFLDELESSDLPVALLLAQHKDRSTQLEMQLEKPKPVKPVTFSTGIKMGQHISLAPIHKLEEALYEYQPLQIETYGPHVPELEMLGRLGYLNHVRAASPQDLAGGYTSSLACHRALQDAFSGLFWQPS
# protocol: CDK7/CyclinH/MAT1 kinase inhibitory activity (Caliper mobility shift)
# experimental setup: enzyme 12.5 nM, ATP 70 μM, 28° C. 30 min; read-out: CDK7/Cyclin H/MAT1 IC50
pIC50: −log10 of the molar value.

> print(dat)
                                   compound    meas.value
1  CC1(C)NCc2c(cnc3c(F)cc(-c4nc(N[C@@H]5CCOC[C@H]5O)ncc4F)cc23)C1O (single isomer, unassigned) [Example 106b]  6.00 to 7.00

Give one value of pIC50 per listed compound.
1. CC(C)(O)c1cnc2c(F)cc(-c3nc(Nc4ccc(-c5c[nH]cn5)cn4)ncc3F)cc2c1Cl
2. O[C@@H]1COCC[C@H]1Nc1ncc(F)c(-c2cc(F)c3ncc4c(c3c2)CNC2(CC2)C4)n1
3. CC1Cc2cnc3c(F)cc(-c4nc(N[C@@H]5CCOC[C@H]5O)ncc4Cl)cc3c2CN1 (single isomer, unassigned) [Example 34b]
4. [2H]c1nc2c(F)cc(-c3nc(N[C@@H]4CCOC[C@H]4O)ncc3C)cc2c2c1CC(C)(C)NC2
5. CC1(C)Cc2cnc3c(F)cc(-c4nc(N[C@@H]5CCOC[C@H]5O)ncc4C#N)cc3c2CN1
6. Cc1nc2c(F)cc(-c3nc(N[C@@H]4CCOC[C@H]4O)ncc3Cl)cc2c(C)c1[C@H](C)O (single isomer, unassigned) [Example 15b]

output:
["≤ 6.00", "7.00 to 8.00", "≤ 6.00", "≤ 6.00", "≤ 6.00", "6.00 to 7.00"]

* * *

# target entity: CDK4/CyclinD1 (Homo sapiens, UniProt P11802)
# Sequence (P11802 whole entry): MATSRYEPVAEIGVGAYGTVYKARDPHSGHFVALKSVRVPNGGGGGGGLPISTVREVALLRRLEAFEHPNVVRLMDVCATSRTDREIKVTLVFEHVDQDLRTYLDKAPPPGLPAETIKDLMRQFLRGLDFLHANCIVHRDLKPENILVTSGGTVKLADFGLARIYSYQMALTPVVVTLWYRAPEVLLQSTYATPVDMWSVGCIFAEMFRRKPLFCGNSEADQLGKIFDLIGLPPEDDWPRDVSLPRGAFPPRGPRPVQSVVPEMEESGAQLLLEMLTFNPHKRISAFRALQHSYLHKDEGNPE
# Sequence (P24385 whole entry partner): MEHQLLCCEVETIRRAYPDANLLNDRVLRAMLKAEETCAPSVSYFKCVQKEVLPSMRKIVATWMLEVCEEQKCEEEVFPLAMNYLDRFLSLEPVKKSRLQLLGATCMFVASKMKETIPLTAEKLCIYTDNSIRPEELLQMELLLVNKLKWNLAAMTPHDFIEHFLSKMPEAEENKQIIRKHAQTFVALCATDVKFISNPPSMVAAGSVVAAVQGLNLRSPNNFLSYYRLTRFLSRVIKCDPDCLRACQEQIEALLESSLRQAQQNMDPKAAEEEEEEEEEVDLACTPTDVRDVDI
# protocol: CDK4/CyclinD1 kinase inhibitory activity (Caliper mobility shift)
# experimental setup: enzyme 20 nM, ATP 672 uM, 28° C. 30 min; read-out: CDK4/Cyclin D1 IC50
parameter: IC50

> print(dat)
                                   molecule  parameter      meas.value
1  CC(C)(O)c1cnc2c(F)cc(-c3nc(Nc4ccc(-c5c[nH]cn5)cn4)ncc3F)cc2c1Cl       IC50         < 10 nM
2  Cc1nc2c(F)cc(-c3nc(N[C@@H]4CCOC[C@H]4O)ncc3F)cc2c2c1CC1(CC1)NC2       IC50         < 10 nM
3  Cc1nc2c(F)cc(-c3nc(N[C@@H]4CCOC[C@H]4O)ncc3Cl)cc2c2c1CCNC2       IC50         < 10 nM
4  Cc1nc2c(cnc3ccc(-c4nc(N[C@@H]5CCOC[C@H]5O)ncc4Cl)cc32)[nH]1       IC50  100 to 1000 nM
5  CC(C)(O)c1cnc2ccc(-c3nc(N[C@@H]4CCOC[C@H]4O)ncc3Cl)cc2c1       IC50    10 to 100 nM
6  Cc1nc2c(F)cc(-c3ccnc(N[C@@H]4CCOC[C@H]4O)n3)cc2c(C)c1C(C)O (single isomer, unassigned) [Example 82b]       IC50    10 to 100 nM

// switching to the query molecule
input: Return reported IC50; argument: CNC(C)c1cc2cc(-c3nc(N[C@@H]4CCOC[C@H]4O)ncc3F)cc(F)c2nc1C (single isomer, unassigned) [Example 54b]
output: < 10 nM
